Each entry below lists one item and its recorded Fold Improvement in KD @ 25° C. value.
TARGET ENTITY: T1, hu-M-IL1RAP construct, positions S21-T367 (extracellular domain of the membrane form of human IL1RAP) (human, UniProt Q9NPH3 21-367)
T1 construct: Biotinylated when captured on the Biacore chip
T1 sequence: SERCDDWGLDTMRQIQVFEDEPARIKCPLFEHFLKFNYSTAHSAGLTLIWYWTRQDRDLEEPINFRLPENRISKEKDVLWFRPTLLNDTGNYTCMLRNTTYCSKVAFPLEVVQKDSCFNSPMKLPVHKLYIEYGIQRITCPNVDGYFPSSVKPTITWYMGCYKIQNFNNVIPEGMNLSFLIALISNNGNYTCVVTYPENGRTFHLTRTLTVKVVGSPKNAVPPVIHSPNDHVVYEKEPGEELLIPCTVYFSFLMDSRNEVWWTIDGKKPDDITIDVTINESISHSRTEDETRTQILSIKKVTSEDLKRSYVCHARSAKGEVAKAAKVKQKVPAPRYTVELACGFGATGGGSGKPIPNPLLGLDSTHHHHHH
EXPERIMENT DESCRIPTION: SPR, Fab against parent Fab

- BINDER: "K3 Fab (VL W92K) (Fab, V domains shown, Fab with 8xHis tag) VH: EVQLVESGGGLVQPGGSLRLSCAASGFTFSNYAMSWVRQAPGKGLEWVATVTEGGDYNYYLDDVKGRFTISRDNAKNSLYLQMNSLRAEDTAVYYCARDRWPYFFDYWGQGTLVTVSS VL: DIQMTQSPSSLSASVGDRVTITCRASENIYSNLAWYQQKPGKSPKLLVYGAKNLADGVPSRFSGSGSGTDYTLTISSLQPEDFATYYCQHFKTTPRTFGGGTKVEIK"
  Fold Improvement in KD @ 25° C.: "6.44 fold"
- BINDER: "H6 Fab (VH R96Q) (Fab, V domains shown, Fab with 8xHis tag) VH: EVQLVESGGGLVQPGGSLRLSCAASGFTFSNYAMSWVRQAPGKGLEWVATVTEGGDYNYYLDDVKGRFTISRDNAKNSLYLQMNSLRAEDTAVYYCARDQWPYFFDYWGQGTLVTVSS VL: DIQMTQSPSSLSASVGDRVTITCRASENIYSNLAWYQQKPGKSPKLLVYGAKNLADGVPSRFSGSGSGTDYTLTISSLQPEDFATYYCQHFWTTPRTFGGGTKVEIK"
  Fold Improvement in KD @ 25° C.: "7.2 fold"
- BINDER: "K10 Fab (VL A51Y) (Fab, V domains shown, Fab with 8xHis tag) VH: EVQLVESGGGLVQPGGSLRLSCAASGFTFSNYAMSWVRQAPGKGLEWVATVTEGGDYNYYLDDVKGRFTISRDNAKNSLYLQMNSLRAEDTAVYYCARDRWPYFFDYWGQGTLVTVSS VL: DIQMTQSPSSLSASVGDRVTITCRASENIYSNLAWYQQKPGKSPKLLVYGYKNLADGVPSRFSGSGSGTDYTLTISSLQPEDFATYYCQHFWTTPRTFGGGTKVEIK"
  Fold Improvement in KD @ 25° C.: "39.4 fold"

Data provenance is patent US20260015426A1.
